Reported values of melting point for individual entries
Unit °C implied. Number only.

// below: answered compounds
Q. Answer with the recorded melting point of CN1CCN(C(=O)OC2C3=C(SCCS3)C(=O)N2c2ccc3cccnc3n2)CC1 (stereo not given) only.
A. 255

Q. In one line, give reported melting point of the entry `O=C1N(c2cc(Cl)nc(Cl)c2)C(=O)[C@@]2(Cc3ccc(OC(F)(F)F)cc3)C[C@H](n3cccc3)CN12` .
A. 130

Consider the additional compound presented here.
Q. Specify melting point for `Cc1ccc(C(=O)c2ccc(Cc3ccc(N)cc3)n2C)c(C)c1` and stop.
A. 108

* * *

Each entry below carries its reported melting point.

Worked examples follow.
Q. Give a short answer stating reported melting point for CC12C=CC(=O)C=C1CCC1C2C(=O)CC2(C)C(SCc3ccc(Cl)c(Cl)c3)CCC12 (stereo not given) .
A. 131 to 133 °C

Q. Read the entry COC(=O)C1OC(OC(=N)C(Cl)(Cl)Cl)C(OC(=O)C(C)C)C(OC(=O)C(C)C)C1OC(=O)C(C)C (stereo not given) and write its reported melting point.
A. 108 °C

Q. // Input: `COc1cc(-c2nc(C)ncc2Br)c(F)cc1Cl` . Output its melting point only.
A. 106 to 107 °C

Q. Assign melting point to the following record: `CCCc1cc(O)nc(SCc2ccccc2)n1`
A. 122 to 126 °C

# ---- query molecule ----
Q. State its melting point for this molecule: CC(Oc1ccc(S(C)=O)cc1)c1ccnc2ncnn12 (stereo not given)
A. 89 to 102 °C
